- assay.comment: Acute toxicity in ip dosed ICR mouse assessed as mortality after 14 days
- Assay type: organism-based
- run.conditions: in vivo
experimental.endpoint: LD50 at 336 h (mg/kg)
Numbers only, in mg/kg.

Data point: Cc1nc(C)c(/C=C/C(=O)N2CCC=C(Cl)C2=O)nc1C ; LD50 at 336 h = 148

---

- assay.comment: Acute toxicity in ICR mouse assessed as survival rate at 200 mg/kg, ip administered for 14 days relative to control
- Format: organism-based
- run.conditions: in vivo
experimental.endpoint: survival at 336 h (%)
Give bare numbers, in %.

For reference, reported survival at 336 h for Cc1nc(C)c(/C=C/C(=O)N2CCC=C(Cl)C2=O)nc1C stands at 30
